growth inhibition for assorted molecules
assay: NCI Yeast Anticancer Drug Screen. Data for the sgs1 mgt1 strain (AID 161);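 also: 0% = growth of cultures given vehicle only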; settings: S. cerevisiae sgs1 mgt1 strain, at 50.0 µM, active compounds read high
This is part of a sample that, as a whole, favours compounds with a hit. Of some 79,000 tested, about 15% had one in any assay.
Field: numeric (%). Do not append units.

Here is how some molecules turned out for growth inhibition.
| molecule | units_symbol | growth inhibition |
| --- | --- | --- |
| CN1CCCC2C(c3ccccc3)C(C3=NCCCC3)C(c3ccccc3)CC21 (stereo unspecified) | % | -23.1 |
| Cc1cc(C)c(C#N)c(NN)n1 | % | 11.1 |
| NC(=O)C(=CN1C(=O)/C(=C/c2ccccc2O)SC1=S)C(N)=O | % | 10.9 |

-- ask Which growth inhibition value is on record for `C=CC[N+](C)(CC=C)CC[N+](C)(CC=C)CC=C` ?
-- reply -14.9

-- ask Do the same for `Cc1ccc2nc(-c3ccc(CSC(=N)N)cc3)oc(=O)c2c1` please
-- reply 45.6

-- ask Do the same for CCC(C(=O)OC)C1CCCCC1 (stereo unspecified) please
-- reply -12.3
